target: Steroid hormone receptor ERR1 (Homo sapiens); experiment: ATG_ERRa_TRANS: Attagene TRANS-FACTORIAL HepG2 Assay for human Estrogen-Related Receptor alpha (ERRa) (AID 2282971); conditions: HepG2 Attagene TRANS reporter, ERRa transactivation
Inconclusive results are not listed. The source made the active and inactive calls. Rule for the calls: active = hit-call score of the fitted dose curve at least 0.9, where 1 is the maximum; inconclusive = response in the unintended direction; inactive = score below 0.9.
Please reply with one of these outcomes: active, inactive

Request: How was O=C(O)Cc1c[nH]c2ccccc12 classified in this test?
Result: inactive

Request: Lab log entry: O=C(c1ccccc1)c1ccccc1O — outcome as called in the assay?
Result: inactive

Request: // param item: CCO[Si](CCCN)(OCC)OCC ; yields the recorded call
Result: inactive

Request: Record request — test call for CCCCCCCCCCCCCCCCCC[N+](C)(C)C
Result: active

Request: Field: outcome | Entry: CC=CC(=O)O
Result: inactive
